Data credit: paper PMC11117632

Below: a set of entries, each annotated with reported Kd.
# Tested on: inactivated SARS-CoV-2 virus (whole virion) (SARS-CoV-2 strain CN2)
# experiment_notes: ELONA
# protocol_conditions: binding buffer 50 mM HEPES pH 7.4, 100 mM NaCl, 5 mM KCl, 2 mM MgCl2, 1 mM CaCl2; room temperature in SELEX, ELONA temperature not stated
measured_property: Kd (nM)

record_sequence | tested_target | numeric_value
GCAATGGTACGGTACTTCCCGGGGCGGGCTGTCATGCCCATCCTACCGTGACCGCAAAAGTGCACGCTACTTTGCTAA [aptamer 6.8] | inactivated SARS-CoV-2 virus (whole virion) (SARS-CoV-2 strain CN2) | 21
GCAATGGTACGGTACTTCCATGGCTGGTGCTTGAGGTGTGTGTGGGGGTAGGGCCAAAAGTGCACGCTACTTTGCTAA [aptamer 6.9] | inactivated SARS-CoV-2 virus (whole virion) (SARS-CoV-2 strain CN2) | 9.6
